All values here come from a melting point compilation (Tetko et al.).

readout.label: melting point

INSERT INTO measurements (compound, recorded_result) VALUES
  ('c1ccc(C2=NCCN2)nc1', '149 to 151 °C'),
  ('O=C(O)c1ccc(S(=O)(=O)Nc2ccccc2Cl)cc1', '111 to 113 °C'),
  ('O=C1CCc2cc(F)c([N+](=O)[O-])cc2N1', '154 to 156 °C'),
  ('NC(=O)Nc1ccc(S(=O)(=O)F)cc1', '177 to 179 °C'),
  ('CC(C(=O)O)c1ccc(S(=O)(=O)N(C)C)cc1 (configuration not stated)', '122 to 124 °C'),
  ('CCN1CCN(S(=O)(=O)c2cccc(N)c2)CC1', '94 to 96 °C'),
  ('Clc1nc(-c2cccnc2)nc2ccccc12', '180 to 182 °C');

---

Parameter: melting point. Scope: all listed entries.
readout.label: melting point

INSERT INTO measurements (compound, recorded_result) VALUES
  ('Nc1ccc(OCc2ccncc2)cc1', '129 to 131 °C'),
  ('O=C(O)COc1ccc(Nc2ccccc2)cc1', '138 to 142 °C'),
  ('Cc1ccc(Cl)c(NC(=O)C(C)Cl)c1Cl (stereo not drawn)', '149 to 151 °C'),
  ('CC(C)c1nnn[nH]1', '104 to 106 °C'),
  ('O=C(O)Cn1c(=O)oc2ccccc21', '178 to 180 °C'),
  ('Cc1cc(C(=O)O)c(C)n1-c1cccnc1', '192 to 194 °C'),
  ('O=C(Nc1ccc(-n2cccn2)c(F)c1)OCC(F)(F)F', '156 to 158 °C'),
  ('CC(C)(C)c1csc(-c2ccc(O)cc2)n1', '228 to 230 °C'),
  ('CCc1cccc(NC(N)=S)c1', '85 to 87 °C'),
  ('O=C(O)/C=C/c1cc(Cl)ccc1Cl', '192 to 194 °C'),
  ('NC(C(=O)O)(c1cc(F)cc(F)c1)C(F)(F)F (stereo not drawn)', '121 to 123 °C'),
  ('O=c1c(-c2ccccc2)coc2cc(O)ccc12', '201 to 203 °C'),
  ('NC(=O)c1cnn(-c2ccccc2)c1N', '167 to 170 °C'),
  ('CCOCCN1C(=O)C(=O)c2ccccc21', '65 to 67 °C'),
  ('N#Cc1c(F)cccc1OC(F)F', '29 to 31 °C'),
  ('NC(=S)Nc1ccccc1OC(F)(F)F', '156 to 158 °C'),
  ('O=C(O)C1CCN(C(=O)c2ccc(Br)cc2)CC1', '202 to 204 °C'),
  ('CCOC(=O)/C(C#N)=C\Nc1ccccc1CC', '124 to 126 °C');

---

readout.label: melting point

INSERT INTO assay_data (smiles_input, recorded_result) VALUES
  ('COc1ccc(-n2c(S)nnc2-c2ccncc2)cc1', '242 to 244 °C'),
  ('Cc1ccc(-c2csc(N)n2)o1', '102 to 104 °C'),
  ('O=C(CCl)ONc1nc2ccccc2[nH]c1=O', '187 to 189 °C'),
  ('CCOc1ccccc1-c1cccc(C(=O)O)c1', '144 to 146 °C'),
  ('Nc1ccccc1-c1cc(F)c(F)c(F)c1', '64 to 66 °C'),
  ('CC(=O)c1cccc(NC(=O)OCC(F)(F)F)c1', '135 to 137 °C'),
  ('Nc1ccc(CCC(=O)O)nc1', '113 to 115 °C'),
  ('Cc1c[nH]c(=O)n1-c1cccc(C#N)c1', '189 to 191 °C'),
  ('O=S(=O)(c1ccc(F)cc1)N1CCNCC1', '112 to 114 °C'),
  ('CCOC(=O)C(=O)CC(=O)c1ccc2ccccc2c1', '51 to 53 °C'),
  ('CC(C)Cc1nnc(N)s1', '239 to 241 °C'),
  ('CC(=O)NCCc1ccc(C(=O)CCl)cc1F', '97 to 99 °C'),
  ('CCOC(=O)c1cc2c(nc1N)CCCC2', '127 to 129 °C'),
  ('Cc1ccc(CNC(=O)c2ccccc2N)cc1', '140 to 142 °C'),
  ('O=Cc1csc(-c2ccc(Cl)cc2)n1', '124 to 126 °C'),
  ('O=C(CCc1ccccc1)c1ccccc1', '69 to 71 °C'),
  ('Cc1cc(C)nc(-n2[nH]c(C(=O)O)cc2=O)n1', '246 to 248 °C'),
  ('CC(=O)NC1(C(=O)O)CCCCCC1', '196 to 198 °C'),
  ('Nc1cc(=O)[nH]c(S)n1', '300 to 302 °C'),
  ('Clc1nc(-c2cccnc2)nc2sc3c(c12)CCC3', '145 to 147 °C');
